molecular target: human growth hormone secretagogue receptor (hGHS-R1a) (Homo sapiens, UniProt Q92847); construct: purchased PerkinElmer BioSignal #RBHGHSM, lot#1887; host or cells: HEK-293, stably transfected (membranes); test: Competitive radioligand binding assay (ghrelin receptor), [125I]-ghrelin displacement on GHS-R/HEK 293 membranes; details: binding activity at the human ghrelin receptor, [125I]-ghrelin competition, GHS-R/HEK 293 membranes; read-out: Ki
Sequence (Q92847 whole entry): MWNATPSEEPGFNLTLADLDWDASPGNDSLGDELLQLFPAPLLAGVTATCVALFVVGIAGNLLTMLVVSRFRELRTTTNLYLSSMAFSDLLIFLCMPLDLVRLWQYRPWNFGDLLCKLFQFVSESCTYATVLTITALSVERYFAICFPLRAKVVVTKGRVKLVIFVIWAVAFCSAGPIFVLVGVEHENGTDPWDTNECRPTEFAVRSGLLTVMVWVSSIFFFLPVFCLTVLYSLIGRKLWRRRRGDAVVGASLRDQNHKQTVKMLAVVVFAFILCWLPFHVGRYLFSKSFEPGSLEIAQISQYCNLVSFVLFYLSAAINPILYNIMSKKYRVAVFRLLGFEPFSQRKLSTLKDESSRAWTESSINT
pKi: −log10 of the molar value.
RECORDED_METRIC: pKi

Request: If you can, please state the reported pKi value of O=C1NC2(CCCC2)C(=O)N[C@@H](Cc2ccccc2)C(=O)NCC=Cc2ccccc2OCCN[C@H]1Cc1ccc(Cl)cc1 (stereo in doubt) .
Response: 5.00 to 6.00

* * *

biological target: human growth hormone secretagogue receptor (hGHS-R1a) (Homo sapiens, UniProt Q92847); construct: purchased PerkinElmer BioSignal #RBHGHSM, lot#1887; host or cells: HEK-293, stably transfected (membranes); assay: Competitive radioligand binding assay (ghrelin receptor), [125I]-ghrelin displacement on GHS-R/HEK 293 membranes; settings: binding activity, standard method; TFA salts unless otherwise noted; read-out: Ki
RECORDED_METRIC: Ki

Request: If you can, please state the reported Ki value of CC(C)CC1NCCOc2ccccc2CCCNC(=O)C(Cc2ccccc2)NC(=O)C2(CCCC2)NC1=O (stereo not drawn) [compound 113] .
Response: 10 to 100 nM

Request: One more molecule: CC1(C)NC(=O)C2(CCCC2)NCCOc2ccccc2C=CCNC(=O)[C@H](Cc2cccc(Cl)c2)NC1=O (stereo in doubt) [compound 334]
Response: 10 to 100 nM

* * *

target: human growth hormone secretagogue receptor (hGHS-R1a) (Homo sapiens, UniProt Q92847); construct: purchased PerkinElmer BioSignal #RBHGHSM, lot#1887; host or cells: HEK-293, stably transfected (membranes); assay: Competitive radioligand binding assay (ghrelin receptor), [125I]-ghrelin displacement on GHS-R/HEK 293 membranes; details: Table 3C (compounds 18, 334-397), human ghrelin receptor; read-out: Ki
pKi: −log10 of the molar value.
Listing of recorded pKi by entry.

As a guide, the following entries are already answered.
Request: Please provide the recorded pKi for CC1(C)NCCOc2ccccc2C=CCNC(=O)[C@H](Cc2cccc(Cl)c2)NC(=O)C(C)(C)NC1=O (stereo in doubt) [compound 350] , tested on human growth hormone secretagogue receptor (hGHS-R1a) (Homo sapiens, UniProt Q92847).
Response: 6.00 to 7.00

Request: One more compound: C[C@@H]1NC(=O)C2(CCCC2)NCCOc2ccccc2C=CCNC(=O)[C@H](Cc2cccc(Cl)c2)NC1=O (stereo in doubt) [compound 352]
Response: 6.00 to 7.00

Request: One more compound: CC1(C)NC(=O)C2(CCCC2)NCCOc2ccccc2C=CCNC(=O)[C@H](Cc2cccc(Cl)c2)NC1=O (stereo in doubt) [compound 334]
Response: 7.00 to 8.00

Continuing:
Request: Please provide the recorded pKi for CC1(C)NCCOc2ccccc2C=CCNC(=O)[C@H](Cc2cccc(Cl)c2)NC(=O)C2(CCCC2)NC1=O (stereo in doubt) [compound 349] , tested on human growth hormone secretagogue receptor (hGHS-R1a) (Homo sapiens, UniProt Q92847).
Response: 7.00 to 8.00
